# protocol summary: Plasma pharmacokinetics of CK in healthy volunteers
# applied conditions: male, human, po, 800 mg
readout: Cmax

| compound | meas value |
| --- | --- |
| CC(C)=CCC[C@](C)(OC1O[C@H](CO)[C@@H](O)[C@H](O)[C@H]1O)[C@H]1CC[C@]2(C)[C@@H]1[C@H](O)C[C@@H]1[C@@]3(C)CC[C@H](O)C(C)(C)[C@@H]3CC[C@]12C (stereo partly shown) [CK] | 4.07 µM |

----------
# tested target: CYP2E1 (Homo sapiens, UniProt P05181)
# Sequence (P05181 whole entry): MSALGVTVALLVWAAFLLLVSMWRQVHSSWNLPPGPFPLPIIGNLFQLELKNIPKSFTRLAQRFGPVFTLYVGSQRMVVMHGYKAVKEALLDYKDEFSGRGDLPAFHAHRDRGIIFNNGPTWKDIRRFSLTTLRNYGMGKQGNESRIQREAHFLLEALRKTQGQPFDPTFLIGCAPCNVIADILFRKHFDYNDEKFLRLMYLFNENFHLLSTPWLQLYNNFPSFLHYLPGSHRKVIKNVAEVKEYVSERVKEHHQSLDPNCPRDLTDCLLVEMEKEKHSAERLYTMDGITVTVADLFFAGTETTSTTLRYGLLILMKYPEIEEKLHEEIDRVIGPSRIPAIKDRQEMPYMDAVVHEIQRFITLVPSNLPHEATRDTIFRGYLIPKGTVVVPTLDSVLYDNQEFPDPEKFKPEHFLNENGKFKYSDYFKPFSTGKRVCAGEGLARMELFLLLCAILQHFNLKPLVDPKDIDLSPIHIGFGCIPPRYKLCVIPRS
pIC50: −log10 of the molar value.
readout: pIC50

| molecule | meas value |
| --- | --- |
| CC(C)=CCC[C@](C)(OC1O[C@H](CO)[C@@H](O)[C@H](O)[C@H]1O)[C@H]1CC[C@]2(C)[C@@H]1[C@H](O)C[C@@H]1[C@@]3(C)CC[C@H](O)C(C)(C)[C@@H]3CC[C@]12C (stereo partly shown) | < 4.00 |
